species on record: Rattus norvegicus; assay: Open TG-GATES - Regimen: Daily Repeat; type: toxicity, organism-based, Sprague-Dawley; set-up: regimen Daily Repeat, gender Male, age 6 weeks; conditions: in vivo, po, 1000 mg/kg, 72 h, tissue Blood, route gavage, dose level High, time 3 day
For each entry below, report its WBC value.
Kindly provide the numeric value in x10_2/uL only, without the unit symbol.

Lookup: What measured WBC goes with NC(N)=Nc1nc(CSCCC(N)=NS(N)(=O)=O)cs1 [FAMOTIDINE] ?
Found: 84.8

Lookup: What about this compound? COC1=CC(=O)C[C@@H](C)[C@]12Oc1c(Cl)c(OC)cc(OC)c1C2=O [GRISEOFULVIN]
Found: 108.3

Lookup: Try this compound next: COc1ccc2[nH]c([S+]([O-])Cc3ncc(C)c(OC)c3C)nc2c1 (stereo unspecified) [OMEPRAZOLE]
Found: 99.5

Lookup: Now this one: CCOC(=O)CCC(=O)O[C@H]1[C@H](O[C@@H]2[C@@H](C)[C@H](O[C@H]3C[C@@](C)(OC)[C@@H](O)[C@H](C)O3)[C@@H](C)C(=O)O[C@H](CC)[C@@](C)(O)[C@H](O)[C@@H](C)C(=O)[C@H](C)C[C@@]2(C)O)O[C@H](C)C[C@@H]1N(C)C [ERYTHROMYCIN ETHYLSUCCINATE]
Found: 68.6

Lookup: And then CC(C)OC(=O)C(C)(C)Oc1ccc(C(=O)c2ccc(Cl)cc2)cc1 [FENOFIBRATE] , what is it?
Found: 91.7

Lookup: Entry to check: CCOc1ccc(NC(=O)CC(C)O)cc1 (stereo unspecified) [BUCETIN]
Found: 111.1

###

Provide the recorded TBIL for the entries that follow.
organism: Rattus norvegicus; assay: Open TG-GATES - Regimen: Single; format: toxicity, organism-based, Sprague-Dawley; parameters: regimen Single, gender Male, age 6 weeks; settings: in vivo, po, 10 mg/kg, 6 h, tissue Plasma, route gavage, dose level Low
Answer format: numeric, mg/dL implied, no suffix.

Lookup: Which value of TBIL has been reported for `CN(C)CCN(Cc1cccs1)c1ccccn1` in the records?
Found: 0.016

Lookup: Param item: CN(C)CCCN1c2ccccc2CCc2ccc(Cl)cc21 [CLOMIPRAMINE]
Found: 0.072

Lookup: Next molecule: CC(C)OC(=O)C(C)(C)Oc1ccc(C(=O)c2ccc(Cl)cc2)cc1 [FENOFIBRATE]
Found: 0.056

Lookup: Quick one: CC1=C(/C=C/C(C)=C/C=C/C(C)=C/CO)C(C)(C)CCC1 [RETINOL]
Found: 0.016

Lookup: Likewise for CN(C)CCCN1c2ccccc2CCc2ccccc21 [IMIPRAMINE] ?
Found: 0.064

###

species: Rattus norvegicus; test: Open TG-GATES - Regimen: Single; type: toxicity, organism-based, Sprague-Dawley; parameters: regimen Single, gender Male, age 6 weeks; settings: in vivo, po, 0 mg/kg, 24 h, tissue Plasma, route gavage, dose level Control
endpoint: CRE (mg/dL)
Just the number please, in mg/dL, no unit attached.

Lookup: For the compound CCOc1ccc(NC(=O)CC(C)O)cc1 (stereo unspecified) , what CRE is on record?
Found: 0.2

Lookup: Next entry: `NNC(=O)c1ccncc1`
Found: 0.4

Lookup: Cool, now `Cc1ccc(C)c(OCCCC(C)(C)C(=O)O)c1`
Found: 0.2

Lookup: Field entry: `CC/C(=C(\c1ccccc1)c1ccc(OCCN(C)C)cc1)c1ccccc1`
Found: 0.2

Lookup: Follow-up item: `COc1cc2c(c(OC)c1OC)-c1ccc(OC)c(=O)cc1[C@@H](NC(C)=O)CC2`
Found: 0.5

Lookup: Next entry: `O=C(CCCN1CCC(O)(c2ccc(Cl)cc2)CC1)c1ccc(F)cc1`
Found: 0.6

###

organism: Rattus norvegicus; assay: Open TG-GATES - Regimen: Single; assay type: toxicity, organism-based, Sprague-Dawley; design: regimen Single, gender Male, age 6 weeks; settings: in vivo, po, 30 mg/kg, 6 h, tissue Blood, route gavage, dose level Middle
endpoint: Eos (%)
The figure you give is taken to be in %; do not add the unit.

Lookup: Which Eos is reported for this compound? `CN(C)CCCN1c2ccccc2CCc2ccccc21`
Found: 1

Lookup: Another: `CN(C)CCCN1c2ccccc2CCc2ccc(Cl)cc21`
Found: 0.8

Lookup: Also, `CN(C)CCN(Cc1cccs1)c1ccccn1` please.
Found: 0.6

Lookup: Here is the next compound: `CC1=C(/C=C/C(C)=C/C=C/C(C)=C/CO)C(C)(C)CCC1`
Found: 0.8

###

species on record: Rattus norvegicus; assay: Open TG-GATES - Regimen: Daily Repeat; type: toxicity, organism-based, Sprague-Dawley; parameters: regimen Daily Repeat, gender Male, age 6 weeks; conditions: in vivo, po, 0 mg/kg, […], tissue Plasma, route gavage, dose level Control, time 28 day
endpoint: TP

Lookup: Quick one: TP of `NNC(=O)c1ccncc1` ?
Found: 6.2 g/dL

Lookup: # repeat for `CN(C)CCN(Cc1cccs1)c1ccccn1`
Found: 5.7 g/dL

Lookup: Try the compound CCOc1ccc(NC(=O)CC(C)O)cc1 (stereo not drawn)
Found: 6.3 g/dL

Lookup: Query COc1ccc2[nH]c([S+]([O-])Cc3ncc(C)c(OC)c3C)nc2c1 (stereo not drawn) next
Found: 6 g/dL

Lookup: Entry to check: `O=C(CCCN1CCC(O)(c2ccc(Cl)cc2)CC1)c1ccc(F)cc1`
Found: 6.6 g/dL

Lookup: Now the same for CCOC(=O)CCC(=O)O[C@H]1[C@H](O[C@@H]2[C@@H](C)[C@H](O[C@H]3C[C@@](C)(OC)[C@@H](O)[C@H](C)O3)[C@@H](C)C(=O)O[C@H](CC)[C@@](C)(O)[C@H](O)[C@@H](C)C(=O)[C@H](C)C[C@@]2(C)O)O[C@H](C)C[C@@H]1N(C)C [ERYTHROMYCIN ETHYLSUCCINATE]
Found: 5.9 g/dL

Lookup: What do you have for `CC1=C(/C=C/C(C)=C/C=C/C(C)=C/CO)C(C)(C)CCC1` ?
Found: 6.1 g/dL

Lookup: Try this compound too: `CN(C)CCCN1c2ccccc2CCc2ccccc21`
Found: 6.3 g/dL

###

species: Rattus norvegicus; assay: Open TG-GATES - Regimen: Single; format: toxicity, organism-based, Sprague-Dawley; parameters: regimen Single, gender Male, age 6 weeks; details: in vivo, po, 300 mg/kg, 24 h, tissue Blood, route gavage, dose level Middle
endpoint: Ret (%)
Note: unit % is implicit; provide only the numeric part.

Lookup: I would be grateful if you could share the reported Ret for `NC(N)=Nc1nc(CSCCC(N)=NS(N)(=O)=O)cs1` .
Found: 6.6

Lookup: Please do the same for CCOC(=O)CCC(=O)O[C@H]1[C@H](O[C@@H]2[C@@H](C)[C@H](O[C@H]3C[C@@](C)(OC)[C@@H](O)[C@H](C)O3)[C@@H](C)C(=O)O[C@H](CC)[C@@](C)(O)[C@H](O)[C@@H](C)C(=O)[C@H](C)C[C@@]2(C)O)O[C@H](C)C[C@@H]1N(C)C [ERYTHROMYCIN ETHYLSUCCINATE] as well.
Found: 7

Lookup: Quick one: `COC1=CC(=O)C[C@@H](C)[C@]12Oc1c(Cl)c(OC)cc(OC)c1C2=O`
Found: 7.3

Lookup: Same lookup for COc1ccc2[nH]c([S+]([O-])Cc3ncc(C)c(OC)c3C)nc2c1 (centres undefined) , please.
Found: 6.1

###

species on record: Rattus norvegicus; assay: Open TG-GATES - Regimen: Single; type: toxicity, organism-based, Sprague-Dawley; parameters: regimen Single, gender Male, age 6 weeks; conditions: in vivo, po, 100 mg/kg, 24 h, tissue Plasma, route gavage, dose level Low
endpoint: TC
The answer consists of two parts: a number and, after it, its unit.

Lookup: Endpoint output: TC of COC1=CC(=O)C[C@@H](C)[C@]12Oc1c(Cl)c(OC)cc(OC)c1C2=O [GRISEOFULVIN] . Value?
Found: 71 mg/dL

Lookup: Ok, now COc1ccc2[nH]c([S+]([O-])Cc3ncc(C)c(OC)c3C)nc2c1 (centres undefined) [OMEPRAZOLE]
Found: 77.8 mg/dL

Lookup: What do you have for NC(N)=Nc1nc(CSCCC(N)=NS(N)(=O)=O)cs1 [FAMOTIDINE] ?
Found: 74.2 mg/dL

Lookup: What about CCOC(=O)CCC(=O)O[C@H]1[C@H](O[C@@H]2[C@@H](C)[C@H](O[C@H]3C[C@@](C)(OC)[C@@H](O)[C@H](C)O3)[C@@H](C)C(=O)O[C@H](CC)[C@@](C)(O)[C@H](O)[C@@H](C)C(=O)[C@H](C)C[C@@]2(C)O)O[C@H](C)C[C@@H]1N(C)C [ERYTHROMYCIN ETHYLSUCCINATE] ?
Found: 83 mg/dL

src = ChEMBL document CHEMBL3885861
